Species on record: Rattus norvegicus
Assay: DrugMatrix - Regimen: Daily Repeat
Type: toxicity, organism-based, Sprague-Dawley
Design: regimen Daily Repeat, gender Male, age 6-8 weeks
Details: in vivo, po, 0 mg/kg, 72 h, tissue Plasma, route oral GAVAGE, dose level Control, time 3 day, vehicle 100 % SALINE
Give measured CHOLESTEROL for each item. Keep answers brief.
Give a bare numeral; the unit mg/dL is implied.

Incoming: Any idea what CHOLESTEROL was measured for CC(CN1c2ccccc2Sc2ccccc21)N(C)C (stereo not given) ?
Outgoing: 69

Incoming: Any idea what CHOLESTEROL was measured for Cc1ccnc2c1NC(=O)c1cccnc1N2C1CC1 ?
Outgoing: 76.5

Incoming: Any idea what CHOLESTEROL was measured for CCO ?
Outgoing: 82.33

Incoming: Any idea what CHOLESTEROL was measured for CCN(CC)N=O ?
Outgoing: 72.5

Incoming: Any idea what CHOLESTEROL was measured for O=[As][O-].[Na+] [SODIUM ARSENITE] ?
Outgoing: 82.33
